- EXPERIMENTAL PARAMETERS: 303.15 K; 100 kPa; Liquid; Concentric cylinders viscometry
Numbers after ± are expanded uncertainties.
# viscosity per record follows
READOUT NAME: viscosity

[[record]]
chemical_string = "O=C1CCCCC1"
recorded_value = "1.91 ± 0.1 mPa·s"

[[record]]
chemical_string = "CCCCCCCCCCO"
recorded_value = "9.76 ± 0.49 mPa·s"

[[record]]
chemical_string = "CCCCCCCO"
recorded_value = "5.03 ± 0.25 mPa·s"

[[record]]
chemical_string = "CCCCCCCCCO"
recorded_value = "7.86 ± 0.39 mPa·s"

[[record]]
chemical_string = "CCCCCO"
recorded_value = "3.04 ± 0.15 mPa·s"

[[record]]
chemical_string = "CCCCCCO"
recorded_value = "3.94 ± 0.2 mPa·s"

[[record]]
chemical_string = "CCCCCCCCO"
recorded_value = "6.41 ± 0.32 mPa·s"


====

- EXPERIMENTAL PARAMETERS: 313.15 K; 100 kPa; Liquid; Vibrating tube method
# mass density per record follows
READOUT NAME: mass density (kg/m3)

[[record]]
compound = "CCCCCCCCCCO [decan-1-ol]"
readout_name = "mass density"
recorded_value = 815.8

[[record]]
compound = "O=C1CCCCC1 [cyclohexanone]"
readout_name = "mass density"
recorded_value = 928.8

[[record]]
compound = "CCCCCCCCCO [nonan-1-ol]"
readout_name = "mass density"
recorded_value = 813.6

[[record]]
compound = "CCCCCO [pentan-1-ol]"
readout_name = "mass density"
recorded_value = 799.6

[[record]]
compound = "CCCCCCCO [heptan-1-ol]"
readout_name = "mass density"
recorded_value = 808

[[record]]
compound = "CCCCCCO [hexan-1-ol]"
readout_name = "mass density"
recorded_value = 804.2

[[record]]
compound = "CCCCCCCCO [octan-1-ol]"
readout_name = "mass density"
recorded_value = 810.9


Reference source for all entries: the NIST ThermoML archive (doi:10.1021/acs.jced.8b00201)
